Where do these numbers come from? They come from patent EP4745132A1.

target-system: NUAK2 (Homo sapiens, UniProt Q9H093)
Sequence (Q9H093 1-628): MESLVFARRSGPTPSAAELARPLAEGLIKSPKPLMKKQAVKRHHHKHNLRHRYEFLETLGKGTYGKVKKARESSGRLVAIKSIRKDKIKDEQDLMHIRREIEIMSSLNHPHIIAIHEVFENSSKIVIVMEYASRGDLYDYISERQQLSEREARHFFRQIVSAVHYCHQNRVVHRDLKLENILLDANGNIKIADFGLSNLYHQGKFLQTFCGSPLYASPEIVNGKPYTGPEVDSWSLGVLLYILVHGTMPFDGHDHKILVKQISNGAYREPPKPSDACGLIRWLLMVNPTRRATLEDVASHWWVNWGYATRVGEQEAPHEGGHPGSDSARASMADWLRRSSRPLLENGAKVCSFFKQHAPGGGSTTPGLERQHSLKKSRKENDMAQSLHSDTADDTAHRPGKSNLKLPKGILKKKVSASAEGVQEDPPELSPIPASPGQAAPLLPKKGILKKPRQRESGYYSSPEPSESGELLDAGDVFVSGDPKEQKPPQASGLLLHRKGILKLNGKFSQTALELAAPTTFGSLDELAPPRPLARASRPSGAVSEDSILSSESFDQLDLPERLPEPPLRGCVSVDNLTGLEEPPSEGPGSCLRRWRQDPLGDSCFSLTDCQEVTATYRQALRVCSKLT
test-summary: Enzyme activity inhibition test, kinase activity assay based on P81 filter paper binding hot-spot technique
Format: biochemical
measurement-setup: final concentration of NUAK2 50 nM; 20 µM CHKtide peptide substrate; 33P-labeled ATP; 2 hours at room temperature; read-out: IC50 (nM) of Test Compounds against NUAK2
value-type: IC50 (nM)

[
  {
    "query-smiles": "CC1(NC(=O)[C@@H]2CC2(F)F)CCN(c2ccnc(Nc3cnn(C4CCNCC4)c3)n2)CC1",
    "units-of-measure": "nM",
    "IC50": 15
  },
  {
    "query-smiles": "CN1CCN(c2ccc(Nc3ncc(Cl)c(N4CCC(C)(NC(=O)[C@@H]5CC5(F)F)CC4)n3)cc2)CC1",
    "units-of-measure": "nM",
    "IC50": 1.44
  }
]

[I] COc1cc(N2CCN(C)CC2)ccc1Nc1ncc(Cl)c(N2CCC(C)(NS(=O)(=O)C3CC3)CC2)n1
[II] CN1CCN(c2ccc(Nc3nccc(N4CCC(C)(NS(=O)(=O)C5CC5)CC4)n3)cc2)CC1
Query: Hi team, can someone confirm which has the larger IC50: I or II ? Thanks. Kindly state the label of the option you pick.
Response: II
